settings: 309.9 K; 101.33 kPa; Liquid; Vibrating tube method
experimentalReadout: mass density (kg/m3)
Form entry: value (kg/m3) — number only.

// worked examples, mass density included
Sample CC(=O)[O-].C[NH2+]CCO [N-methyl-2-hydroxyethylammonium acetate] ; mass density observed: 1093.77

Sample C[NH2+]CCO.O=C[O-] [2-hydroxy-N-methylethanaminium formate] ; mass density observed: 1121.69

Sample CC(C)C(=O)[O-].C[NH2+]CCO [2-hydroxy-N-methylethanaminium isobutyrate] ; mass density observed: 1035.79

Sample CCCC(=O)[O-].C[NH2+]CCO [N-methyl-2-hydroxyethylammonium butanoate] ; mass density observed: 1031.35

Next:
Sample CCCCC(=O)[O-].C[NH2+]CCO [2-hydroxy-N-methylethanaminium pentanoate] ; mass density observed: 1008.33

Sample CCC(=O)[O-].C[NH2+]CCO [2-hydroxy-N-methylethanaminium propionate] ; mass density observed: 1063.64

====

Quick list: mass density per entry.
conditions: 290.15 K; 101.33 kPa; Liquid; Vibrating tube method
± gives the expanded uncertainty stated by the source.
Please give the number followed by its unit.

// worked examples, mass density included
Sample CCC(=O)[O-].C[NH2+]CCO [2-hydroxy-N-methylethanaminium propionate] ; mass density observed: 1076.48 ± 2.2 kg/m3

Sample CC(=O)[O-].C[NH2+]CCO [N-methyl-2-hydroxyethylammonium acetate] ; mass density observed: 1105.58 ± 2.2 kg/m3

Next:
Sample C[NH2+]CCO.O=C[O-] [2-hydroxy-N-methylethanaminium formate] ; mass density observed: 1132.72 ± 2.2 kg/m3

Sample CCCCC(=O)[O-].C[NH2+]CCO [2-hydroxy-N-methylethanaminium pentanoate] ; mass density observed: 1021.64 ± 2.2 kg/m3

Sample CC(C)C(=O)[O-].C[NH2+]CCO [2-hydroxy-N-methylethanaminium isobutyrate] ; mass density observed: 1048.41 ± 2.2 kg/m3

Sample CCCC(=O)[O-].C[NH2+]CCO [N-methyl-2-hydroxyethylammonium butanoate] ; mass density observed: 1044.66 ± 2.2 kg/m3

====

conditions: 336.9 K; 101.33 kPa; Liquid; Pulse-echo method
Quick list: speed of sound per entry.
Form entry: value (m/s) — number only.

// worked examples, speed of sound included
Sample CCC(=O)[O-].C[NH2+]CCO [2-hydroxy-N-methylethanaminium propionate] ; speed of sound observed: 1574.4

Sample C[NH2+]CCO.O=C[O-] [2-hydroxy-N-methylethanaminium formate] ; speed of sound observed: 1740.7

Next:
Sample CCCC(=O)[O-].C[NH2+]CCO [N-methyl-2-hydroxyethylammonium butanoate] ; speed of sound observed: 1493.1

Sample CCCCC(=O)[O-].C[NH2+]CCO [2-hydroxy-N-methylethanaminium pentanoate] ; speed of sound observed: 1429.3

Sample CC(C)C(=O)[O-].C[NH2+]CCO [2-hydroxy-N-methylethanaminium isobutyrate] ; speed of sound observed: 1501.2

====

conditions: 324.65 K; 101.33 kPa; Liquid; Vibrating tube method
Quick list: mass density per entry.
Form entry: value (kg/m3) — number only.

// worked examples, mass density included
Sample CCCC(=O)[O-].C[NH2+]CCO [N-methyl-2-hydroxyethylammonium butanoate] ; mass density observed: 1021.22

Sample CCC(=O)[O-].C[NH2+]CCO [2-hydroxy-N-methylethanaminium propionate] ; mass density observed: 1053.81

Sample CCCCC(=O)[O-].C[NH2+]CCO [2-hydroxy-N-methylethanaminium pentanoate] ; mass density observed: 998.196

Sample C[NH2+]CCO.O=C[O-] [2-hydroxy-N-methylethanaminium formate] ; mass density observed: 1113.51

Sample CC(C)C(=O)[O-].C[NH2+]CCO [2-hydroxy-N-methylethanaminium isobutyrate] ; mass density observed: 1026.03

Alright, here's another compound for you.
Sample CC(=O)[O-].C[NH2+]CCO [N-methyl-2-hydroxyethylammonium acetate] ; mass density observed: 1084.68

====

conditions: 308.4 K; 101.33 kPa; Liquid; Vibrating tube method
± gives the expanded uncertainty stated by the source.
experimentalReadout: mass density

// worked examples, mass density included
Sample CCCC(=O)[O-].C[NH2+]CCO [N-methyl-2-hydroxyethylammonium butanoate] ; mass density observed: 1032.37 ± 2.2 kg/m3

Sample C[NH2+]CCO.O=C[O-] [2-hydroxy-N-methylethanaminium formate] ; mass density observed: 1122.53 ± 2.2 kg/m3

Next:
Sample CCC(=O)[O-].C[NH2+]CCO [2-hydroxy-N-methylethanaminium propionate] ; mass density observed: 1064.63 ± 2.2 kg/m3

Sample CCCCC(=O)[O-].C[NH2+]CCO [2-hydroxy-N-methylethanaminium pentanoate] ; mass density observed: 1009.34 ± 2.1 kg/m3

Sample CC(C)C(=O)[O-].C[NH2+]CCO [2-hydroxy-N-methylethanaminium isobutyrate] ; mass density observed: 1036.77 ± 2.2 kg/m3

Sample CC(=O)[O-].C[NH2+]CCO [N-methyl-2-hydroxyethylammonium acetate] ; mass density observed: 1094.68 ± 2.2 kg/m3

====

Quick list: speed of sound per entry.
details: 337.66 K; 101.33 kPa; Liquid; Pulse-echo method
Form entry: value (m/s) — number only.

// worked examples, speed of sound included
Sample CCCCC(=O)[O-].C[NH2+]CCO [2-hydroxy-N-methylethanaminium pentanoate] ; speed of sound observed: 1427

Sample CCCC(=O)[O-].C[NH2+]CCO [N-methyl-2-hydroxyethylammonium butanoate] ; speed of sound observed: 1490.8

Sample CCC(=O)[O-].C[NH2+]CCO [2-hydroxy-N-methylethanaminium propionate] ; speed of sound observed: 1572.1

Sample CC(C)C(=O)[O-].C[NH2+]CCO [2-hydroxy-N-methylethanaminium isobutyrate] ; speed of sound observed: 1499

Alright, here's another compound for you.
Sample C[NH2+]CCO.O=C[O-] [2-hydroxy-N-methylethanaminium formate] ; speed of sound observed: 1739.4

====

settings: 316.41 K; 101.33 kPa; Liquid; Vibrating tube method
experimentalReadout: mass density (kg/m3)
Form entry: value (kg/m3) — number only.

Sample CC(C)C(=O)[O-].C[NH2+]CCO [2-hydroxy-N-methylethanaminium isobutyrate] ; mass density observed: 1031.52

Sample CCCCC(=O)[O-].C[NH2+]CCO [2-hydroxy-N-methylethanaminium pentanoate] ; mass density observed: 1003.89

Sample C[NH2+]CCO.O=C[O-] [2-hydroxy-N-methylethanaminium formate] ; mass density observed: 1118.07

Sample CCC(=O)[O-].C[NH2+]CCO [2-hydroxy-N-methylethanaminium propionate] ; mass density observed: 1059.34

Sample CC(=O)[O-].C[NH2+]CCO [N-methyl-2-hydroxyethylammonium acetate] ; mass density observed: 1089.79

Next:
Sample CCCC(=O)[O-].C[NH2+]CCO [N-methyl-2-hydroxyethylammonium butanoate] ; mass density observed: 1026.92

====

settings: 293.15 K; 101.33 kPa; Liquid
Quick list: viscosity per entry.
Form entry: value (mPa·s) — number only.

// worked examples, viscosity included
Sample CCCC(=O)[O-].C[NH2+]CCO [N-methyl-2-hydroxyethylammonium butanoate] ; viscosity observed: 433.8

Sample C[NH2+]CCO.O=C[O-] [2-hydroxy-N-methylethanaminium formate] ; viscosity observed: 26.05

Sample CCC(=O)[O-].C[NH2+]CCO [2-hydroxy-N-methylethanaminium propionate] ; viscosity observed: 301.63

Sample CCCCC(=O)[O-].C[NH2+]CCO [2-hydroxy-N-methylethanaminium pentanoate] ; viscosity observed: 319.63

Sample CC(=O)[O-].C[NH2+]CCO [N-methyl-2-hydroxyethylammonium acetate] ; viscosity observed: 145.8

Alright, here's another compound for you.
Sample CC(C)C(=O)[O-].C[NH2+]CCO [2-hydroxy-N-methylethanaminium isobutyrate] ; viscosity observed: 220.69

====

conditions: 328.66 K; 101.33 kPa; Liquid; Pulse-echo method
experimentalReadout: speed of sound (m/s)
Form entry: value (m/s) — number only.

// worked examples, speed of sound included
Sample CC(C)C(=O)[O-].C[NH2+]CCO [2-hydroxy-N-methylethanaminium isobutyrate] ; speed of sound observed: 1524.9

Sample CCCC(=O)[O-].C[NH2+]CCO [N-methyl-2-hydroxyethylammonium butanoate] ; speed of sound observed: 1519

Sample C[NH2+]CCO.O=C[O-] [2-hydroxy-N-methylethanaminium formate] ; speed of sound observed: 1756

Sample CCCCC(=O)[O-].C[NH2+]CCO [2-hydroxy-N-methylethanaminium pentanoate] ; speed of sound observed: 1454.7

Next:
Sample CCC(=O)[O-].C[NH2+]CCO [2-hydroxy-N-methylethanaminium propionate] ; speed of sound observed: 1599.4

====

conditions: 305.15 K; 101.33 kPa; Liquid; Vibrating tube method
Numbers after ± are expanded uncertainties.
experimentalReadout: mass density
Please give the number followed by its unit.

// worked examples, mass density included
Sample CCCCC(=O)[O-].C[NH2+]CCO [2-hydroxy-N-methylethanaminium pentanoate] ; mass density observed: 1011.53 ± 2.1 kg/m3

Sample CCC(=O)[O-].C[NH2+]CCO [2-hydroxy-N-methylethanaminium propionate] ; mass density observed: 1066.76 ± 2.2 kg/m3

Sample C[NH2+]CCO.O=C[O-] [2-hydroxy-N-methylethanaminium formate] ; mass density observed: 1124.34 ± 2.2 kg/m3

Next:
Sample CC(C)C(=O)[O-].C[NH2+]CCO [2-hydroxy-N-methylethanaminium isobutyrate] ; mass density observed: 1038.87 ± 2.2 kg/m3

Sample CCCC(=O)[O-].C[NH2+]CCO [N-methyl-2-hydroxyethylammonium butanoate] ; mass density observed: 1034.54 ± 2.2 kg/m3

Sample CC(=O)[O-].C[NH2+]CCO [N-methyl-2-hydroxyethylammonium acetate] ; mass density observed: 1096.64 ± 2.2 kg/m3
